molecular target: T1, human plasma-derived vWF (human, UniProt P04275 764-2813); assay: ELISA, GF coated 50 nM, vWF 1 µg/mL
T1 construct: mature; also called plasma-derived purified vWF; von Willebrand factor
OBSERVATION TYPE: binding result

# BINDER, OBSERVATION TYPE, OBSERVED
records = [
    ("TGF-β3 (ligand, UniProt P10600 301-412, looked up, mature; Purchased in mature form) ALDTNYCFRNLEENCCVRPLYIDFRQDLGWKWVHEPKGYYANFCSGPCPYLRSADTTHSTVLGLYNTLNPEASASPCCVPQDLEPLTILYYVGRTPKVEQLSNMVVKSCKCS", "binding result", "no binding"),
    ("C-X-C motif ligand (CXCL)-11 (ligand, UniProt O14625 22-94, looked up, mature; Purchased in mature form) FPMFKRGRCLCIGPGVKAVKVADIEKASIMYPSNNCDKIEVIITLKENKGQRCLNPKSKQARLIIKKVERKNF", "binding result", "binds"),
    ("fibroblast growth factor (FGF)-7 (ligand, UniProt P21781 32-194, looked up, mature; Purchased in mature form) CNDMTPEQMATNVNCSSPERHTRSYDYMEGGDIRVRRLFCRTQWYLRIDKRGKVKGTQEMKNNYNIMEIRTVAVGIVAIKGVESEFYLAMNKEGKLYAKKECNEDCNFKELILENHYNTYASAKWTHNGGEMFVALNQKGIPVRGKKTKKEQKTAHFLPMAIT", "binding result", "binds"),
    ("placental growth factor (PlGF)-1 (ligand, human, UniProt P49763-2 19-149, looked up, mature; Purchased in mature form) LPAVPPQQWALSAGNGSSEVEVVPFQEVWGRSYCRALERLVDVVSEYPSEVEHMFSPSCVSLLRCTGCCGDENLHCVPVETANVTMQLLKIRSGDRPSYVELTFSQHVRCECRPLREKMKPERCGDAVPRR", "binding result", "no binding"),
    ("bone morphogenetic protein (BMP)-7 (ligand, UniProt P18075 293-431, looked up, mature; Purchased in mature form) STGSKQRSQNRSKTPKNQEALRMANVAENSSSDQRQACKKHELYVSFRDLGWQDWIIAPEGYAAYYCEGECAFPLNSYMNATNHAIVQTLVHFINPETVPKPCCAPTQLNAISVLYFDDSSNVILKKYRNMVVRACGCH", "binding result", "no binding"),
    ("fibroblast growth factor (FGF)-18 (ligand, UniProt O76093 28-207, looked up, mature; Purchased in mature form) EENVDFRIHVENQTRARDDVSRKQLRLYQLYSRTSGKHIQVLGRRISARGEDGDKYAQLLVETDTFGSQVRIKGKETEFYLCMNRKGKLVGKPDGTSKECVFIEKVLENNYTALMSAKYSGWYVGFTKKGRPRKGPKTRENQQDVHFMKRYPKGQPELQKPFKYTTVTKRSRRIRPTHPA", "binding result", "binds"),
    ("bone morphogenetic protein (BMP)-2 (ligand, UniProt P12643 283-396, looked up, mature) QAKHKQRKRLKSSCKRHPLYVDFSDVGWNDWIVAPPGYHAFYCHGECPFPLADHLNSTNHAIVQTLVNSVNSKIPKACCVPTELSAISMLYLDENEKVVLKNYQDMVVEGCGCR", "binding result", "binds"),
]
